- Test system: Tyk2-pSTAT4 (IL-12 induced pSTAT4)
- EXPERIMENT: IL-12 induced pSTAT4 in human PBMC
- Format: cell-based
- EXPERIMENTAL_PARAMETERS: Homo sapiens, PBMC, 0.5 h, 1.7 ng/mL IL-12, 30 minutes
Readings of EC50 for the listed molecules

query: So what EC50 did N#Cc1cccc(F)c1-c1cc(-n2ccc(N3CCNC(=O)C3)n2)c2c(n1)CNC2=O [I-175] get with Tyk2-pSTAT4 (IL-12 induced pSTAT4)?
result: 100 to 2000 nM

query: Thanks! And CC(=O)N[C@@H]1CCCN(c2ccn(-c3cc(-c4c(F)cccc4C#N)nc4c3C(=O)NC4)n2)C1 [I-129] ?
result: 100 to 2000 nM

* * *

- Test system: Tyk2-pSTAT4 (IL-12 induced pSTAT4)
- EXPERIMENT: IL-12 induced pSTAT4 in human PBMC
- Type: cell-based
- EXPERIMENTAL_PARAMETERS: Homo sapiens, PBMC, 0.5 h, 1.7 ng/mL IL-12, 30 minutes
- Method: Human PBMC are isolated from buffy coat and are stored frozen for assays as needed. Cells for assay are thawed and resuspended in complete media containing serum, then cells are diluted to 1.67 E6 cells/ml so that 120 ul per well is 200,000 cells. […] 15 ul of stimulus (final concentration of 1.7 ng/mL IL-12) is added for 30 minutes prior to pSTAT4 and total STAT4 analysis using cell lysates prepared and analyzed by MSD reagents as per manufacturer protocol. […]
Readings of EC50 for the listed compounds

1) N#Cc1cccc(F)c1-c1cc(-n2ccc(N3CCCC(N4CCOCC4)C3)n2)c2c(n1)CNC2=O (stereo not shown)    100 to 2000 nM
2) N#Cc1cccc(F)c1-c1cc(-n2ccc(N3CCC[C@@H](N4CCOCC4)C3)n2)c2c(n1)CNC2=O    100 to 2000 nM
3) CO[C@H]1CN(c2ccn(-c3cc(-c4c(F)cccc4C#N)nc4c3C(=O)NC4)n2)C[C@@]1(C)O    30 to 100 nM
4) N#Cc1cccc(F)c1-c1cc(-n2ccc(N3CC[C@]4(CCNC4=O)C3)n2)c2c(n1)CNC2=O    100 to 2000 nM
5) CO[C@H]1CN(c2ccn(-c3cc(-c4c(F)cccc4C#N)nc4c3C(=O)NC4)n2)CC[C@@H]1O    30 to 100 nM

query: Bench note: what EC50 did `[2H]C1([2H])N(c2ccn(-c3cc(-c4c(F)cccc4C#N)nc4c3C(=O)NC4)n2)C([2H])([2H])C([2H])([2H])C([2H])(O)C1([2H])[2H]` show?
result: 30 to 100 nM

query: Thanks! And `C[C@@]1(O)CN(c2ccn(-c3cc(-c4c(F)cccc4C#N)nc4c3C(=O)NC4)n2)CC[C@H]1O` ?
result: 30 to 100 nM

* * *

- System: Tyk2-pSTAT4 (IL-12 induced pSTAT4)
- EXPERIMENT: IL-12 induced pSTAT4 in human PBMC
- Type: cell-based
- EXPERIMENTAL_PARAMETERS: Homo sapiens, PBMC, 0.5 h, 1.7 ng/mL IL-12, 30 minutes
PARAMETER: EC50

These solved cases illustrate the format of a correct answer.
1. C[C@]1(O)CN(c2ccn(-c3cc(-c4c(F)cccc4C#N)nc4c3C(=O)NC4)n2)CC[C@H]1O    100 to 2000 nM
2. C[C@@]1(O)CCCN(c2ccn(-c3cc(-c4c(F)cccc4C#N)nc4c3C(=O)NC4)n2)C1    30 to 100 nM
3. CC1(O)CCCN(c2ccn(-c3cc(-c4c(F)cccc4C#N)nc4c3C(=O)NC4)n2)C1 (centres unmarked)    100 to 2000 nM
4. [2H]C([2H])([2H])O[C@@H]1CN(c2ccn(-c3cc(-c4c(F)cccc4C#N)nc4c3C(=O)NC4)n2)C[C@@H]1O    100 to 2000 nM
5. N#Cc1cccc(F)c1-c1cc(-n2ccc(N3CC[C@H](C#N)C3)n2)c2c(n1)CNC2=O    30 to 100 nM

query: So what EC50 did `CO[C@@H]1CN(c2ccn(-c3cc(-c4c(F)cccc4C#N)nc4c3C(=O)NC4)n2)CC[C@H]1O` get with Tyk2-pSTAT4 (IL-12 induced pSTAT4)?
result: 30 to 100 nM

query: Thanks! And `N#Cc1cccc(F)c1-c1cc(-n2cc3c(n2)CNC3)c2c(n1)CNC2=O` ?
result: > 2000 nM

query: Thanks! And `N#Cc1cccc(F)c1-c1cc(-n2ccc(N3CC[C@H](O)C3)n2)c2c(n1)CNC2=O` ?
result: 30 to 100 nM

* * *

- ASSAY_TARGET: JAK2 (Homo sapiens (Human), UniProt O60674)
- Sequence (O60674 whole entry): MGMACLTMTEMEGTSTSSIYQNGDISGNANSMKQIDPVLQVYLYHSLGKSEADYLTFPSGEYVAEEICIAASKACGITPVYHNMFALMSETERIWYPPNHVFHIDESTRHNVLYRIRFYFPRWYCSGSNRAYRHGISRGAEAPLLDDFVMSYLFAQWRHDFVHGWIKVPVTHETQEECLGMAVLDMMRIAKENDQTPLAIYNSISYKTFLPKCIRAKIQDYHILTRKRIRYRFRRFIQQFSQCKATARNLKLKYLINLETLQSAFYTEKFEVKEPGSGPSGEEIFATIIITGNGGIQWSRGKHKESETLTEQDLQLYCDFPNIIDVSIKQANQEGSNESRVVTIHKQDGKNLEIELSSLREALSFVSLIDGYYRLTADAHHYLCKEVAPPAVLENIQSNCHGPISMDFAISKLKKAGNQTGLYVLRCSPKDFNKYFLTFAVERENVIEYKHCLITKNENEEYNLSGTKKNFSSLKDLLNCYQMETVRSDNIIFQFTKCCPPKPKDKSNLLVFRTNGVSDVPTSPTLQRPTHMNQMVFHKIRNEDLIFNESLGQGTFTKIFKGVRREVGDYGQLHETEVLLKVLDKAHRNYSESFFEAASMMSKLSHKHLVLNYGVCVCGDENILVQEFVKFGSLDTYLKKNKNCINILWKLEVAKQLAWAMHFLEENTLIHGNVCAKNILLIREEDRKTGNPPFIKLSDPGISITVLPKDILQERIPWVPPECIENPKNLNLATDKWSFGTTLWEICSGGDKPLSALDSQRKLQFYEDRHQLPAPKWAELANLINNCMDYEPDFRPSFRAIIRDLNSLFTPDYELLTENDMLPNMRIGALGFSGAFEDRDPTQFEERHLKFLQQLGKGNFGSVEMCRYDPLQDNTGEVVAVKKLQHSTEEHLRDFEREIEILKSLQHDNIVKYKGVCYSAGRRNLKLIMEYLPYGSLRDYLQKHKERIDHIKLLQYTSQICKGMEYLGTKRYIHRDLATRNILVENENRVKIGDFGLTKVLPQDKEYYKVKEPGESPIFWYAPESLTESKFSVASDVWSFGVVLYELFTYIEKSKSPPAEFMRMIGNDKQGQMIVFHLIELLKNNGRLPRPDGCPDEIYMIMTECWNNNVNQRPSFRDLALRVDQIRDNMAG
Readings of Ki for the listed compounds

These solved cases illustrate the format of a correct answer.
1) N#Cc1cccc(F)c1-c1cc(-n2ccc(N3CC[C@H](C#N)[C@@H](O)C3)n2)c2c(n1)CNC2=O [I-216]    0.1 to 10 nM
2) C[C@]1(O)CN(c2ccn(-c3cc(-c4c(F)cccc4C#N)nc4c3C(=O)NC4)n2)CC[C@H]1O    0.1 to 10 nM
3) CO[C@H]1CN(c2ccn(-c3cc(-c4c(F)cccc4C#N)nc4c3C(=O)NC4)n2)C[C@@]1(C)OC    0.1 to 10 nM

query: Bench note: what Ki did `CS(=O)(=O)c1ccn(-c2cc(-c3c(F)cccc3C#N)nc3c2C(=O)NC3)n1` show?
result: ≥ 1000 nM

* * *

Readings of pEC50 for the listed molecules
- System: Tyk2-pSTAT4 (IL-12 induced pSTAT4)
- EXPERIMENT: IL-12 induced pSTAT4 in human PBMC
- Assay type: cell-based
- EXPERIMENTAL_PARAMETERS: Homo sapiens, PBMC, 0.5 h, 1.7 ng/mL IL-12, 30 minutes
- Procedure: Human PBMC are isolated from buffy coat and are stored frozen for assays as needed. Cells for assay are thawed and resuspended in complete media containing serum, then cells are diluted to 1.67 E6 cells/ml so that 120 ul per well is 200,000 cells. […] 15 ul of stimulus (final concentration of 1.7 ng/mL IL-12) is added for 30 minutes prior to pSTAT4 and total STAT4 analysis using cell lysates prepared and analyzed by MSD reagents as per manufacturer protocol. […]
pEC50: −log10 of the molar value.

These solved cases illustrate the format of a correct answer.
1) N#Cc1cccc(F)c1-c1cc(-n2ccc(N3CCC[C@@H](C(N)=O)C3)n2)c2c(n1)CNC2=O    5.70 to 7.00
2) [2H]C1([2H])N(c2ccn(-c3cc(-c4c(F)cccc4C#N)nc4c3C(=O)NC4)n2)C([2H])([2H])[C@]([2H])(O)C1([2H])[2H]    5.70 to 7.00
3) [2H]C1([2H])N(c2ccn(-c3cc(-c4c(F)cccc4C#N)nc4c3C(=O)NC4)n2)C([2H])([2H])C(C)(O)C([2H])([2H])C1([2H])[2H] (stereo not shown)    5.70 to 7.00

Next molecule, please.
query: Bench note: what pEC50 did `N#Cc1cccc(F)c1-c1cc(-n2ccc(N3CCC[C@H](O)[C@H](O)C3)n2)c2c(n1)CNC2=O` show?
result: 5.70 to 7.00

* * *

- ASSAY_TARGET: TYK2 (Homo sapiens (Human), UniProt P29597)
- Sequence (P29597 whole entry): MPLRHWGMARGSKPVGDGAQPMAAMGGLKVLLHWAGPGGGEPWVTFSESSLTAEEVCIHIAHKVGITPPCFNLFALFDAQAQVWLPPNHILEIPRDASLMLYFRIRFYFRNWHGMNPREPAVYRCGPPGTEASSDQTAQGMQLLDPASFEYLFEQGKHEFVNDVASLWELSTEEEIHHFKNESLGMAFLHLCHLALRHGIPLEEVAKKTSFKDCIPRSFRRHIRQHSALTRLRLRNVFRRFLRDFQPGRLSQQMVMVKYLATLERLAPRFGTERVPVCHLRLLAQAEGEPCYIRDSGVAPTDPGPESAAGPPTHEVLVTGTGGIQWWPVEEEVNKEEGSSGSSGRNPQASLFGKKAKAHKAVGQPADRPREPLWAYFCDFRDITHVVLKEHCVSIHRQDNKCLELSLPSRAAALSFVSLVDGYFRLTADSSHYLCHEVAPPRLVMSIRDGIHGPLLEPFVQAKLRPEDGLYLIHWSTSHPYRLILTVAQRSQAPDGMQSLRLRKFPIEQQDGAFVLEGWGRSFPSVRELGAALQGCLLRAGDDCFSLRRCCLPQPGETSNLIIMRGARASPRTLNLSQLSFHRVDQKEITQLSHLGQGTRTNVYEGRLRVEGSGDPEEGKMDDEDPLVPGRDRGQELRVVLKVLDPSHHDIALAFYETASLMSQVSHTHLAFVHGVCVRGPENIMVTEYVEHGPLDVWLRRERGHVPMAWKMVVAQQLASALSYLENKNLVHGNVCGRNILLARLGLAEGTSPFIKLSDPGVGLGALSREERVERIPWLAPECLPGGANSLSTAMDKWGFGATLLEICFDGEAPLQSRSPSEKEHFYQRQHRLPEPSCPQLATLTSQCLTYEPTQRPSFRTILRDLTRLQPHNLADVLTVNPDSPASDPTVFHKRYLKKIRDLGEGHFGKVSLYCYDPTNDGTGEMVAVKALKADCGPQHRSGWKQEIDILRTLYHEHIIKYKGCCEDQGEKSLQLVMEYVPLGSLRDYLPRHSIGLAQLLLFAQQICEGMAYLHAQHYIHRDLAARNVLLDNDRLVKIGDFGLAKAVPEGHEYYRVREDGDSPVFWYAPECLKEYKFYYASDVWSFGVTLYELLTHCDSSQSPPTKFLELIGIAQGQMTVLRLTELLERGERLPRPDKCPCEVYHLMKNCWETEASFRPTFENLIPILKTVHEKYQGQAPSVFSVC
Readings of Ki for the listed compounds

1. [2H]C1([2H])N(c2ccn(-c3cc(-c4c(F)cccc4C#N)nc4c3C(=O)NC4)n2)C([2H])([2H])[C@](C)(O)C([2H])([2H])C1([2H])[2H]    0.1 to 10 nM

query: Bench note: what Ki did `N#Cc1cccc(F)c1-c1cc(-n2ccc(N3CCC[C@H](C(=O)N4CCCC4)C3)n2)c2c(n1)CNC2=O` show?
result: 0.1 to 10 nM

query: Thanks! And `N#Cc1cccc(F)c1-c1cc(-n2ccc(N3CC[C@@]4(CCNC4=O)C3)n2)c2c(n1)CNC2=O` ?
result: 0.009 to 0.1 nM

query: Thanks! And CC1(C)C(O)CCN1c1ccn(-c2cc(-c3c(F)cccc3C#N)nc3c2C(=O)NC3)n1 (stereo not drawn) ?
result: 0.009 to 0.1 nM

query: Thanks! And `N#Cc1cccc(F)c1-c1cc(-n2ccc(N3CCC[C@H](O)[C@H](O)C3)n2)c2c(n1)CNC2=O` ?
result: 0.1 to 10 nM

query: Thanks! And [2H]C([2H])([2H])C1(O)C([2H])([2H])N(c2ccn(-c3cc(-c4c(F)cccc4C#N)nc4c3C(=O)NC4)n2)C([2H])([2H])C1([2H])[2H] (stereo not drawn) ?
result: 0.1 to 10 nM

query: Thanks! And `N#Cc1cccc(F)c1-c1cc(-n2ccc(N3CCC[C@H](N4CCOCC4)C3)n2)c2c(n1)CNC2=O` ?
result: 0.1 to 10 nM

query: Thanks! And `[2H]C1([2H])N(c2ccn(-c3cc(-c4c(F)cccc4C#N)nc4c3C(=O)NC4)n2)C([2H])([2H])[C@@]([2H])(O)C1([2H])[2H]` ?
result: 0.1 to 10 nM

query: Thanks! And N#Cc1cccc(F)c1-c1cc(-n2ccc(N3CC[C@@H](O)[C@@H](O)C3)n2)c2c(n1)CNC2=O [I-137] ?
result: 0.1 to 10 nM

query: Thanks! And `C[C@]1(O)CN(c2ccn(-c3cc(-c4c(F)cccc4C#N)nc4c3C(=O)NC4)n2)C[C@@](C)(O)C1` ?
result: 10 to 100 nM
